This section presents compounds with their documented z-score values.
experiment: inhibitors of GR-EGFP nuclear translocation, primary screen, dynein cargo transport inhibitor project, imaging, high-content, 3617.4 mouse cells (AID 1381); settings: measured here: cell count per field, at 20 µM, stimulated with dexamethasone, 1 µM
Hit rate of the full screen: of about 220,000 compounds, about 1,000 (0.45%) were called active. Only a selection was taken, and actives are over-represented in it overall.

Guide cases for z-score, answers given:
• COc1ccc(C)cc1NC(=S)Nc1ccccc1SC = 0.252
• O=C(/C=C/c1cccs1)c1cc(Cl)ccc1OC(=O)N1CCOCC1 = 0.865
• COc1ccc(-c2csc(-c3cccs3)n2)cc1OC = 0.288

Ask | State the recorded z-score for this entry: COc1ccc(C(C#N)N2N=C(C)CC2(C)C)cc1 (stereo unspecified)
Reply | -0.511

Ask | # input compound: CC1(C)CCSC(/C=C/c2ccccc2)=N1 ; wanted: its z-score
Reply | 1.01

Ask | State the recorded z-score for this entry: COc1ccc(-c2csc3nc(-c4ccccc4F)oc(=O)c23)cc1OC
Reply | -0.574

Ask | Consider the compound shown here: O=C1/C(=C\c2cccnc2)CN(Cc2ccccc2)C/C1=C\c1cccnc1 What is its recorded z-score?
Reply | -0.00204

Ask | Item COc1ccccc1NS(=O)(=O)N(C)C has what recorded z-score?
Reply | 0.4

Ask | Return reported z-score; argument: CC1CCN(C(=O)c2ccc(S(=O)(=O)Cc3cc(F)ccc3F)c([N+](=O)[O-])c2)CC1
Reply | -1.15

Ask | Quick one: z-score of CC(OC(=O)c1ccccc1N1C(=O)C2C3CCC(C3)C2C1=O)C(=O)c1ccccc1 (stereo unspecified) ?
Reply | -1.14

Ask | I have this compound here, COc1ccc(-c2noc(-c3cccc(OC)c3OC)n2)cc1OC , and I need its recorded z-score.
Reply | -0.605

Data origin: PubChem BioAssay AID1381
